Data origin: patent US20240158348A1

system: ryegrass, Italian (Italian ryegrass, Lolium multiflorum); assay: Test C postemergence, Italian ryegrass; format: in vivo; conditions: 31 g ai/ha Postemergence; visual injury, 0 to 100 scale (0 no effect, 100 complete control)
Reported values of Ryegrass, Italian plant response rating for individual entries

# Compound, Ryegrass, Italian plant response rating
measured = [
    ("C#CCO/N=C1\\CCN(c2cc(NS(=O)(=O)C(F)(F)F)c(C)cc2C)C1=O [Compound 13]", 60),
    ("CO/N=C1\\CCN(c2cc(NS(=O)(=O)C(F)(F)F)c(C)cc2C)C1=O [Compound 9]", 50),
    ("Cc1c(NS(=O)(=O)C(F)(F)F)cc(N2CCCC(OC3CC3)C2=O)c(C)c1F (centres unmarked) [Compound 35]", 50),
    ("Cc1cc(Cl)c(N(COC(=O)C(C)(C)C)S(=O)(=O)C(F)(F)F)cc1N1CCC(OC2CC2)C1=O (centres unmarked) [Compound 33]", 20),
    ("Cc1cc(C)c(N2CCC(OCC3CC3)C2=O)cc1NS(=O)(=O)C(F)(F)F (centres unmarked) [Compound 22]", 70),
    ("CC(=O)N(c1cc(N2CCC(OC3CC3)C2=O)c(C)cc1Cl)S(=O)(=O)C(F)(F)F (centres unmarked) [Compound 38]", 30),
    ("Cc1cc(C)c(N2CCC(OC3CC3)C2=O)cc1NS(=O)(=O)C(F)(F)F (single isomer, unassigned) [Compound 30]", 90),
    ("Cc1c(N2CCC(OC3CCC3)C2=O)cc(N(COC(=O)C(C)(C)C)S(=O)(=O)C(F)(F)F)c(C)c1C (centres unmarked) [Compound 51]", 20),
]

* * *

tested on: ducksalad (Heteranthera limosa); experiment: Test D flooded paddy test, ducksalad; type: in vivo; parameters: key: 0 = no effect, 100 = complete control; settings: 250 g ai/ha, Flood; applied to paddy water at 2-leaf stage; visual rating after 13 days; scale 0 (no effect) to 100 (complete control)
For each record, check the reported Plant response rating, Ducksalad: if it is below 80 write T, else write F.

# Compound, Assigned Class
measured = [
    ("Cc1c(NS(=O)(=O)C(F)(F)F)cc(N2CCC(OC3CC3)C2=O)c(C)c1F (stereo not shown)", "T"),
    ("COC(=O)N(c1cc(N2CCC(OC3CC3)C2=O)c(C)cc1C)S(=O)(=O)C(F)(F)F (stereo not shown)", "T"),
    ("CC(=O)N(c1cc(N2CCC(OC3CC3)C2=O)c(C)cc1C)S(=O)(=O)C(F)(F)F (stereo not shown)", "F"),
    ("Cc1cc(C)c(N(C(=O)OCC(C)C)S(=O)(=O)C(F)(F)F)cc1N1CCC(OC2CC2)C1=O (stereo not shown)", "F"),
    ("Cc1c(N2CCC(OC3CC3)C2=O)cc(N(COC(=O)C(C)(C)C)S(=O)(=O)C(F)(F)F)c(C)c1C (stereo not shown)", "F"),
    ("Cc1cc(C)c(N2CCC(OC3CC3)C2=O)cc1NS(=O)(=O)C(F)(F)F (single isomer, unassigned) [Compound 30]", "F"),
    ("Cc1cc(C)c(N(C(=O)OC(C)C)S(=O)(=O)C(F)(F)F)cc1N1CCC(OC2CC2)C1=O (stereo not shown)", "T"),
]
